Below is a list of entries, each paired with its recorded Ki value.
# subject.of.test: UniProtKB P49841
# Sequence (P49841 whole entry): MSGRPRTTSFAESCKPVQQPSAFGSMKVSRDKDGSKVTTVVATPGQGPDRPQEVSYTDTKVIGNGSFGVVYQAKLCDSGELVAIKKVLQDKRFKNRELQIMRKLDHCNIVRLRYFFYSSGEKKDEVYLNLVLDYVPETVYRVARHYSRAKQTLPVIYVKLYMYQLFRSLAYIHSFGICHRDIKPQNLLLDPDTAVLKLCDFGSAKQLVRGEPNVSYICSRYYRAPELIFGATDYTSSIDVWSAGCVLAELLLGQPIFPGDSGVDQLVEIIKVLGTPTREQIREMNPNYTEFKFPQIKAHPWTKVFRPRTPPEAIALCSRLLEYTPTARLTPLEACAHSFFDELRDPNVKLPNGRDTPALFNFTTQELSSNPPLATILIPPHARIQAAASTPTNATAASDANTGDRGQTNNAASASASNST
# Assay type: functional
Activity calls are given as the source filed them.
observation.type: Ki

1) c1ccc(Cn2nnc(-c3ccc4[nH]ncc4c3)c2-c2ccccc2)cc1; 10 nM (active)
2) CS(=O)(=O)N(Cc1ccc2[nH]c(=O)c3cccn3c2c1)C1CC1; > 2000 nM (inactive)
3) c1cnc2[nH]cc(-c3ccnc(NCC4CCCCC4)n3)c2c1; 126 nM (active)
4) O=C(Nc1n[nH]c2ccc(-c3cn(Cc4ccccc4)nn3)cc12)c1cc(F)ccc1F; 2 nM (active)

###

# protocol.text: cells
# Type: functional, cell-based
Active and inactive are the calls of the source.
Overview of recorded EC50 for various compounds
observation.type: EC50

1. Cc1cc(C)c2sc(NNC(=O)c3ccc(S(=O)(=O)N4CCc5ccccc5C4)cc3)nc2c1; 41.8 µM (active)
2. CCCCC(=O)Nc1ccc(NC(=O)CC)cc1OC; > 350 µM (not active)
3. O=C(N/N=C/c1cccnc1)c1ccc(NC(=O)c2ccc(Cl)cc2)cc1; > 350 µM (not active)
4. Cc1cc(NC(c2ccc(Cl)cc2)c2ccc3cccnc3c2O)no1 (stereo not given); 6.45 µM (active)
5. Cc1cc(NC(=O)CSc2nc3c(c(=O)n2-c2ccc(Cl)cc2)SCC3)no1; > 350 µM (not active)

###

# protocol.text: NIH3T3 cell viability loss – ATP luminescence, mouse fibroblasts, counter-screen, dose response (AID 2010);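 note: cells exposed to compound for about 90 hours before reading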
# Assay type: functional, cell-based
Calls of active or inactive are those of the source.
EC50 for assorted compounds
observation.type: EC50

1) Cc1ccc(-n2cc(CN3CCC(O)(c4ccccn4)CC3)c(-c3ccc(F)cc3)n2)cc1; 9.48 µM (active)
2) O=C(Nn1c(-c2ccncc2)nc2ccccc2c1=O)c1ccc(Br)cc1; > 60 µM (not active)
3) Cc1ccc(Nc2nc(-c3cccnc3)cs2)cc1Cl; > 60 µM (not active)
4) COc1ccccc1/C=C/CN1CCCC(CCC(=O)NCc2ccccc2F)C1 (stereo unspecified); > 60 µM (not active)
5) Cc1ccc(OCCCCNC2CCCCC2)c(C)c1; > 60 µM (not active)
6) O=C(Cn1cnc([N+](=O)[O-])c1)Nc1cc(Oc2ccc(Cl)cc2Cl)cc([N+](=O)[O-])c1; > 60 µM (not active)

###

# subject.of.test: Orexin/Hypocretin receptor type 1 (Homo sapiens)
# Sequence (O43613 whole entry): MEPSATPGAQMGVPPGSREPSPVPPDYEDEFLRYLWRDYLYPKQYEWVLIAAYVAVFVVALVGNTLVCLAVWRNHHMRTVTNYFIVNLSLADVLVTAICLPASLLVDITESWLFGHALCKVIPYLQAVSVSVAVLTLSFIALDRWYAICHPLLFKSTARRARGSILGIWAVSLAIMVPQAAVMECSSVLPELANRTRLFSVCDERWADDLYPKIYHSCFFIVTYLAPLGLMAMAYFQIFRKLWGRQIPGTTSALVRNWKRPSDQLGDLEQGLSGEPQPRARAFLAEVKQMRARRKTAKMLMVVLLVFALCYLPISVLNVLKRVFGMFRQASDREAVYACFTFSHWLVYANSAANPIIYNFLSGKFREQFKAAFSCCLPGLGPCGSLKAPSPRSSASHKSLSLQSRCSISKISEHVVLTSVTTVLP
# protocol.text: Fluorescence-based cell-based high throughput dose response assay for antagonists of the orexin 1 receptor (OX1R; HCRTR1). [Related pubchem assays (depositor defined):AID434989, AID435008, AID463079, AID485270, AID492963, AID492964, AID492965, AID493232, AID504717, AID504718]
# Format: functional
Activity calls are given as the source filed them.
Classes used: Yes (active), No (inactive)

1. Cc1cccc(NC(=O)[C@@H]2CCCN2S(=O)(=O)c2ccc(Cl)cc2)c1; Yes
2. CCn1c(C)nc2cc(-c3nc4n(n3)Cc3ccccc3-4)ccc21; No
3. O=C(Nc1cccc(NC(=O)N2CCN(c3ccccc3)CC2)c1)N1CCN(c2ccccc2)CC1; No
4. O=C(CN1C(=O)/C(=C\c2cccc(Br)c2)Oc2ccccc21)NCC1CCCO1 (centres undefined); Yes

###

# subject.of.test: Homeodomain-interacting protein kinase 2 (Homo sapiens)
# Sequence (Q9H2X6 whole entry): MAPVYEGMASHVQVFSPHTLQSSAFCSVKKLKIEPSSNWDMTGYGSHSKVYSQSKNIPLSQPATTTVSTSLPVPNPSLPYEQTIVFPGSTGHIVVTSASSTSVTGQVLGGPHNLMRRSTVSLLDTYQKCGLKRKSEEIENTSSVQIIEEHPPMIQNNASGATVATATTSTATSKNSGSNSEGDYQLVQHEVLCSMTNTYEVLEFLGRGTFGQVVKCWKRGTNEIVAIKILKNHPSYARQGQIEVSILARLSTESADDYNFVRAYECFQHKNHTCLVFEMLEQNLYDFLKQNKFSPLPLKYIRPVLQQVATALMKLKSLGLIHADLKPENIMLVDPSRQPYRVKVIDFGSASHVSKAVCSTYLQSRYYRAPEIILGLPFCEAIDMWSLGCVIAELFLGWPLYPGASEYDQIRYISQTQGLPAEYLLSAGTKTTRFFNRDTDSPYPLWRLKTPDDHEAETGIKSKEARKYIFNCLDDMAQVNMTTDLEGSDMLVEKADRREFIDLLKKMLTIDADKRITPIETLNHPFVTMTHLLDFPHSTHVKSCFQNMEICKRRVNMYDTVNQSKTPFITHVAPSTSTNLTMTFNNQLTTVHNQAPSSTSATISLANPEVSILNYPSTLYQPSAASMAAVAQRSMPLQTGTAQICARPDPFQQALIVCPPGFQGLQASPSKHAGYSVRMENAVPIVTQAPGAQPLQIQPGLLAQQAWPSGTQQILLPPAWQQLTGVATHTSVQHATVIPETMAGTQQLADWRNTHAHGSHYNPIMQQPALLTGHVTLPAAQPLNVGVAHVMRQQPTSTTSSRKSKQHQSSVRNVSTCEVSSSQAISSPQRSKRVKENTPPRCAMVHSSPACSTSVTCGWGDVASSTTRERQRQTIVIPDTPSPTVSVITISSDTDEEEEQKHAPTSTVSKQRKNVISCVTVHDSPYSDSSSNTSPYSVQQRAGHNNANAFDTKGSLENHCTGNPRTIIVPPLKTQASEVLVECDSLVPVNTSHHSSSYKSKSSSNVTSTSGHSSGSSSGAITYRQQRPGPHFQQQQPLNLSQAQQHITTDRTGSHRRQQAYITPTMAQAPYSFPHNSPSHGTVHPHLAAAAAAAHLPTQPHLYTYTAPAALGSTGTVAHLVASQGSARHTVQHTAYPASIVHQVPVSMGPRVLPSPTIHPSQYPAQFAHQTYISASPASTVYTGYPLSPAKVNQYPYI
# Type: functional
The source made the active and inactive calls.
Ki values, listed per item
observation.type: Ki

1. CS(=O)(=O)N(Cc1ccc2[nH]c(=O)c3cccn3c2c1)C1CC1; 0.0631 µM (active)
2. c1ccc(Cn2nnc(-c3ccc4[nH]ncc4c3)c2-c2ccccc2)cc1; 1 µM (active)
3. O=C(Nc1n[nH]c2ccc(-c3cn(Cc4ccccc4)nn3)cc12)c1cc(F)ccc1F; 0.1 µM (active)
4. c1cnc2[nH]cc(-c3ccnc(NCC4CCCCC4)n3)c2c1; 0.0158 µM (active)

###

EC50 listing for selected compounds.
# subject.of.test: Zinc finger protein mex-5 (Caenorhabditis elegans)
# Sequence (Q9XUB2 whole entry): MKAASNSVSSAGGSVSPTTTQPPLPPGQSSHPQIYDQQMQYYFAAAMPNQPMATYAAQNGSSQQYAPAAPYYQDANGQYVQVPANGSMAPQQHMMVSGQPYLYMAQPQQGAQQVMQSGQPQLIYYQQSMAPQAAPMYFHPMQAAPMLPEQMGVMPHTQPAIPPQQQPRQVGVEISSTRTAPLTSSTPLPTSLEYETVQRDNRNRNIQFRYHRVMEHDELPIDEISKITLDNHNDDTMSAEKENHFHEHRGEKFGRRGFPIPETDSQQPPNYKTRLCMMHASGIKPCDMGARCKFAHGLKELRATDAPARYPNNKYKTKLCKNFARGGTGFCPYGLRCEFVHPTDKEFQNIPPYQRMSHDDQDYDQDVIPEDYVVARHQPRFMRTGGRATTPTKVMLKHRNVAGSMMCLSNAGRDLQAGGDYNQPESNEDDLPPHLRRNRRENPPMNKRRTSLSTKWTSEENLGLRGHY
# protocol.text: potency of MEX-5 RNA-binding blockers – biochemical, C. elegans, fluorescence polarization, dose response (AID 1960)
Activity calls are given as the source filed them.
observation.type: EC50

1. Nc1ncnc(NNC(=O)CNC(=O)c2c(F)cccc2Cl)c1[N+](=O)[O-]; 0.241 µM (active)
2. CCCN1CCc2cccc3c2[C@H]1Cc1ccc(O)c(O)c1-3; 3.12 µM (active)
3. CCOC(=O)Cn1c2ccc(OC)cc2c2nc3ccccc3nc21; 2.26 µM (active)
4. O=c1[nH]n(-c2ncnc3c2cnn3-c2ccccc2)c(=O)c2ccccc12; 7.26 µM (active)
5. Cc1cccn2c(=O)c3cc(C(=O)NC4CCCC4)c(=N)n(CCc4ccccc4)c3nc12; > 300 µM (not active)
6. CCC(Oc1ccccc1)C(=O)Nc1ccccn1 (stereo not drawn); > 300 µM (not active)
7. O=C(O)C(=O)/C(=C\c1ccsc1)c1ccc2ccccc2n1; 49 µM (active)
8. CN1C(=O)C(=Cc2c[nH]c3ccccc23)C(=O)N(C)C1=O; 151 µM (active)
9. CC1(OC(=O)c2ccco2)C(=O)C=C2C=C(C3CC3)OC=C2C1=O (stereo not drawn); 18.3 µM (active)
10. CCOC(=O)c1cc(=O)n2nc(-c3ccccc3F)nc2s1; > 300 µM (not active)
11. C=CCN1C(=O)NC(=O)/C(=C/c2c(CCN(C)C(=O)c3ccccc3)cc3c(c2OC)OCO3)C1=O; > 300 µM (not active)
12. COc1cccc(=O)c2c(C)oc(C)c12; > 300 µM (not active)
13. COc1ccc(NC(=O)/C=C/c2cccc(Br)c2)cn1; 12.4 µM (active)

###

# subject.of.test: Endoribonuclease toxin MazF (Escherichia coli K-12, UniProt P0AE70)
# Sequence (P0AE70 whole entry): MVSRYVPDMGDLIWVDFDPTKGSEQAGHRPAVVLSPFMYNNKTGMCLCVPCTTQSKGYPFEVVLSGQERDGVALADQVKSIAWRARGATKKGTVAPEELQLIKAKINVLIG
# protocol.text: substrate-only fluorescence increase artefacts – biochemical, single-stranded RNase substrate, counter-screen for MazEF activator project, dose response (AID 588502)
# Format: functional
Active and inactive are the calls of the source.
observation.type: EC50

1) CN(C)Cc1c(C(=O)N/N=C/c2cccc(OCc3ccc(F)cc3)c2)nnn1-c1nonc1N; > 99 µM (inactive)
2) CCOC(=O)Cn1c2ccc(OC)cc2c2nc3ccccc3nc21; 50.7 µM (inactive)
3) CCOc1cc2c(cc1/C=C/c1noc(C)c1[N+](=O)[O-])OC(C)C2 (centres undefined); > 99 µM (inactive)
4) O=C(Nc1cccc2ccccc12)N1CC=C(c2ccccc2)CC1; > 99 µM (inactive)

###

# subject.of.test: Low molecular weight phosphotyrosine protein phosphatase (Homo sapiens)
# Sequence (P24666 whole entry): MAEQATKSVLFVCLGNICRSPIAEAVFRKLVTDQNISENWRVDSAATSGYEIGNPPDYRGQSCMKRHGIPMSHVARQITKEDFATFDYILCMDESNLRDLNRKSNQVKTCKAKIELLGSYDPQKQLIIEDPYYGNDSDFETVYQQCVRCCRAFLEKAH
# Type: functional
# study.conditions: read-out: IC50_Mean
Calls of active or inactive are those of the source.
Outcomes: T = active, F = inactive

1) O=C(N/N=C/C(Br)=C/c1ccccc1)c1ccc([N+](=O)[O-])cc1; T
2) CCn1cc(C(=O)O)c(=O)c2cc(F)c(N3CCN(C(=S)NC(=O)c4ccccc4F)CC3)cc21; T
3) O=C(N/N=C/C(Cl)=C/c1ccccc1)c1ccc2c(c1)OCO2; F
4) CC(=O)Nc1ccc(CNc2nc(NCC3CC3)nc3ccsc23)cc1; T
5) Cc1cc(N2CCN(c3nc(-c4ccc([N+](=O)[O-])cc4)cs3)CC2)c2ccccc2n1; T

###

# System: Streptococcus
# protocol.text: GAS UMAA2166 growth inhibition – luminescence, BacTiterGlo, counter-screen for streptokinase expression inhibitor project, dose response (AID 1915);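 note: potency for reduction of bacterial viability or growth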
# Type: functional, organism-based
Active and inactive are the calls of the source.
observation.type: EC50

1) Clc1ccccc1CN(Cc1ccccc1)c1[nH]cnc2ncnc1-2; > 150 µM (not active)
2) Cc1ccccc1OCC(=O)Nc1ccccc1N1CCC(C)CC1; 11.1 µM (active)
3) CC(C)c1nc(N2CCCC2)c(C#N)c2c1CCCC2; 7.01 µM (active)
4) Cc1cc(C)c2sc(NNC(=O)c3ccc(S(=O)(=O)N4CCc5ccccc5C4)cc3)nc2c1; 3.44 µM (active)
5) Cc1nn(-c2ccccc2)c(Cl)c1/C=C1\SC(=S)N(CCCCCC(=O)O)C1=O; 11.2 µM (active)
6) O=C(NNC(=S)NC(=O)c1ccccc1)c1ccc([N+](=O)[O-])cc1; 15.5 µM (active)
